Ref: patent US20170267768A1

Listed binders paired with reported percent scFv-conjugated-liposome EphA2 binding on-rate
Target: T1, His6-tagged recombinant human EphA2 protein (human, UniProt P29317 25-534)
T1 construct: also called his-tagged recombinant, human EphA2; human EphA2 with c-terminal His6
T1 sequence (P29317 25-534 limits assumed): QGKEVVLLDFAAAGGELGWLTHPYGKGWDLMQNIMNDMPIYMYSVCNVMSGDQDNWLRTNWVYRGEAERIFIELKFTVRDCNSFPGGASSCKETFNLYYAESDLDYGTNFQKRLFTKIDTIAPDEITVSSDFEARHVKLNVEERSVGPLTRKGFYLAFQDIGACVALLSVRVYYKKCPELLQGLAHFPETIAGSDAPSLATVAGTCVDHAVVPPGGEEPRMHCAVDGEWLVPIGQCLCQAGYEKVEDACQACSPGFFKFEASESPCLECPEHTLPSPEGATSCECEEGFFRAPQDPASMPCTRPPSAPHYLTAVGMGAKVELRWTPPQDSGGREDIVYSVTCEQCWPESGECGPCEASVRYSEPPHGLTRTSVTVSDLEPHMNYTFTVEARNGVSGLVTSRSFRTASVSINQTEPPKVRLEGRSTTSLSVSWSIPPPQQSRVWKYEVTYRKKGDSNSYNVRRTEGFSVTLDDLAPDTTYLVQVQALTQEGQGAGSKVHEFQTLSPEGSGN
Assay: BLI (Octet Red 96); His6-EphA2 on anti-His sensors; slope of association curve of scFv-linked liposomes at 0.025 mM phospholipid; TS1C printed as 100
Text: A nucleic acid encoding human EphA2 with c-terminal His6 appended was cloned into expression vector pCEP4 (Invitrogen® # V044-50) and transiently expressed in FreeStyle™ 293 cells (Invitrogen® #K900001) following polyethylenenimine transfection. The His6-tagged recombinant human EphA2 protein was purified from the cell culture medium using Ni-NTA Sepharose™ resin (Quiagen®, USA). […]
endpoint name: percent scFv-conjugated-liposome EphA2 binding on-rate (%)

[[record]]
binder = "TS1C (scFv, also called parental clone TS1 (C form)) scFv: QVQLVQSGGGLVQPGGSLRLSCAASGFTFSSYAMHWVRQAPGKGLEWVAVISYDGSNKYYADSVKGRFTISRDNSKNTLYLQMNSLRAEDTAVYYCARASVGATGPFDIWGQGTLVTVSSASTGGGGSGGGGSGGGGSGGGGSSSELTQPPSVSVAPGQTVTITCQGDSLRSYYASWYQQKPGTAPKLLIYGENNRPSGVPDRFSGSSSGTSASLTITGAQAEDEADYYCNSRDSSGTHLTVFGGGTKLTVLGGGSGGC"
reported_result = 100

[[record]]
binder = "scFv-7C (scFv, also called clone 7) scFv: QVQLVQSGGGLVQPGGSLRLSCAASGFTFSSYAMHWVRQAPGKGLEWVSVISPAGPNTYYADSVKGRFTISRDNSKNTLYLQMNSLRAEDTAVYYCARASVGATGPFDIWGQGTLVTVSSASTGGGGSGGGGSGGGGSGGGGSSSELTQPPSVSVAPGQTVTITCQGDSLRSYYASWYQQKPGTAPKLLIYGENNRPSGVPDRFSGSSSGTSASLTITGAQAEDEADYYCNSRDSSGTHLTVFGGGTKLTVLGGGSGGC"
reported_result = 119

[[record]]
binder = "scFv-2C (scFv, also called clone 2) scFv: QVQLVQSGGGLVQPGGSLRLSCAASGFTFSSYAMHWVRQAPGKGLEWVSVISPAGRNKYYADSVKGRFTISRDNSKNTLYLQMNSLRAEDTAVYYCARASVGATGPFDIWGQGTLVTVSSASTGGGGSGGGGSGGGGSGGGGSSSELTQPPSVSVAPGQTVTITCQGDSLRSYYASWYQQKPGTAPKLLIYGENNRPSGVPDRFSGSSSGTSASLTITGAQAEDEADYYCNSRDSSGTHLTVFGGGTKLTVLGGGSGGC"
reported_result = 117

[[record]]
binder = "scFv-11C (scFv, also called clone 11) scFv: QVQLVQSGGGLVQPGGSLRLSCAASGFTFSSYAMHWVRQAPGKGLEWVAVISHHGSNTYYADSVKGRFTISRDNSKNTLYLQMNSLRAEDTAVYYCARASVGATGPFDIWGQGTLVTVSSASTGGGGSGGGGSGGGGSGGGGSSSELTQPPSVSVAPGQTVTITCQGDSLRSYYASWYQQKPGTAPKLLIYGENNRPSGVPDRFSGSSSGTSASLTITGAQAEDEADYYCNSRDSSGTHLTVFGGGTKLTVLGGGSGGC"
reported_result = 120

[[record]]
binder = "scFv-16C (scFv) scFv: QVQLVQSGGGLVQPGGSLRLSCAASGFTFSSYAMHWVRQAPGKGLEWVSVISNNGHNTYYADSVKGRFTISRDNSKNTLYLQMNSLRAEDTAVYYCARASVGATGPFDIWGQGTLVTVSSASTGGGGSGGGGSGGGGSGGGGSSSELTQPPSVSVAPGQTVTITCQGDSLRSYYASWYQQKPGTAPKLLIYGENNRPSGVPDRFSGSSSGTSASLTITGAQAEDEADYYCNSRDSSGTHLTVFGGGTKLTVLGGGSGGC"
reported_result = 113

